// data source = patent US5223526A

# experimental target: succinate dehydrogenase (Botrytis cinerea, UniProt A0A384J5E4+A0A384J8V8+A0A384JHJ5)
# Construct: succinate-DCPIP reductase assay with KCN
# Sequence (A0A384J5E4 1-300): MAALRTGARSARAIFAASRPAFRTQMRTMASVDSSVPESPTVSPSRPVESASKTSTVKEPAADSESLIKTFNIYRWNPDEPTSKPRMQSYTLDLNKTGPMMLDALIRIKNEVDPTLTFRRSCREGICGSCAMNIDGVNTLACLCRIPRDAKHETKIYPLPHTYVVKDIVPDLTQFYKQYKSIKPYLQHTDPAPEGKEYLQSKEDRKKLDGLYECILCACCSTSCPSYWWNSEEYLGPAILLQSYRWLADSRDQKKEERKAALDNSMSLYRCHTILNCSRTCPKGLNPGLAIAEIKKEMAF
# Sequence (A0A384J8V8 1-189): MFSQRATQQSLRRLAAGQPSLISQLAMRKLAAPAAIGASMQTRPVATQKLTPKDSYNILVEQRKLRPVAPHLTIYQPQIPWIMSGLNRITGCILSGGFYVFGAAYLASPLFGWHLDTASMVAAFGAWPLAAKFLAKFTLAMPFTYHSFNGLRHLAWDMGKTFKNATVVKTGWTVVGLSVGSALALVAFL
# Sequence (A0A384JHJ5 1-192): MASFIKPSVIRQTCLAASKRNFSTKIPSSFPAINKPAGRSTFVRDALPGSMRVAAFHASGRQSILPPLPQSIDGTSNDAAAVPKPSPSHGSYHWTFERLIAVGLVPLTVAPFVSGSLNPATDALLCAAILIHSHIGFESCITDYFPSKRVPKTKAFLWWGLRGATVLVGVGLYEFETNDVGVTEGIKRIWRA
# Sequence (A0A384K456 1-647 partner): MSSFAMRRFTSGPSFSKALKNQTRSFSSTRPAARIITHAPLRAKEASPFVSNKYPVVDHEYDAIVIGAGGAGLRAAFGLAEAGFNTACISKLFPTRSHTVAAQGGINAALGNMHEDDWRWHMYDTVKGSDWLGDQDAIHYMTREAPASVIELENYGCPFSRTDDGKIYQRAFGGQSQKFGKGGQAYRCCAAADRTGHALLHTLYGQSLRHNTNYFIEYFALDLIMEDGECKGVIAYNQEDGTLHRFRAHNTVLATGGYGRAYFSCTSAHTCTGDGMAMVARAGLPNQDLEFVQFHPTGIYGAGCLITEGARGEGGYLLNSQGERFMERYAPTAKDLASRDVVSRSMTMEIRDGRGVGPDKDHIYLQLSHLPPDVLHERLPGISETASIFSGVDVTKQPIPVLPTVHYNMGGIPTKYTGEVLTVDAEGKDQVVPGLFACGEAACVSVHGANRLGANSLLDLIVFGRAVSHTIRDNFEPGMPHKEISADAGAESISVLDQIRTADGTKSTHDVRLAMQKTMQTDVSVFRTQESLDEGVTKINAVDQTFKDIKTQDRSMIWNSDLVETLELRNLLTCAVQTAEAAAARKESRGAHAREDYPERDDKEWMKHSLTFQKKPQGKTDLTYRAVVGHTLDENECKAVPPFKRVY
# test: Enzyme inhibition: succinate dehydrogenase activity in Botrytis cinerea mitochondria (DCPIP reduction)
# Format: biochemical
# measurement conditions: concentration required to inhibit the rate of DCPIP reduction by 50%; Botrytis cinerea isolate Nick mitochondria; read-out: I50 (μM conc.)
List of IC50 values.
Unit µM implied. Number only.

// known answers, use as guide
> print(dat)
                                   compound                       experimental.target  readout.units  observed
1  O=C(Nc1ccccc1C1CCCCC1)c1cn(C(F)F)nc1C(F)F  succinate dehydrogenase (Botrytis cinerea, UniProt A0A384J5E4+A0A384J8V8+A0A384JHJ5)             µM      0.19
2  Cn1cc(C(=O)Nc2ccccc2C2CCCCCCC2)c(C(F)F)n1  succinate dehydrogenase (Botrytis cinerea, UniProt A0A384J5E4+A0A384J8V8+A0A384JHJ5)             µM    0.0012
3       Cn1cc(C(=O)Nc2ccccc2C2CCCC2)c(Br)n1  succinate dehydrogenase (Botrytis cinerea, UniProt A0A384J5E4+A0A384J8V8+A0A384JHJ5)             µM     0.047
4  Cn1cc(C(=O)Nc2ccccc2[C@@H]2C[C@H]3CC[C@@H]2C3)c(Br)n1 (relative stereo)  succinate dehydrogenase (Botrytis cinerea, UniProt A0A384J5E4+A0A384J8V8+A0A384JHJ5)             µM     0.011
5  Cn1nc(C(F)(F)F)c(C(=O)Nc2ccccc2C2CCCCC2)c1F  succinate dehydrogenase (Botrytis cinerea, UniProt A0A384J5E4+A0A384J8V8+A0A384JHJ5)             µM     0.013

# IC50 lookup, item Cc1cc(C)c(C2CCCC2)c(NC(=O)c2cn(C)nc2C(F)(F)F)c1
0.068

====

# experimental target: succinate dehydrogenase (Botrytis cinerea, UniProt A0A384J5E4+A0A384J8V8+A0A384JHJ5)
# Construct: succinate-DCPIP reductase assay with KCN
# test: Enzyme inhibition: succinate dehydrogenase activity in Botrytis cinerea mitochondria (DCPIP reduction)
# Format: biochemical
# measurement conditions: concentration required to inhibit the rate of DCPIP reduction by 50%; Botrytis cinerea isolate Nick mitochondria; read-out: I50 (μM conc.)
IC50 strictly less than 0.02 µM = Fulfilled. Otherwise Not fulfilled.

Some solved cases for reference:
> print(dat)
                                   molecule  assigned.class
1     Cn1cc(C(=O)Nc2ccccc2C2CCCCCC2)c(Br)n1       Fulfilled
2  Cn1cc(C(=O)Nc2ccccc2OCCC2CCCC2)c(C(F)(F)F)n1   Not fulfilled
3  Cn1cc(C(=O)Nc2ccccc2C2=CCCCC2)c(C(F)(F)F)n1       Fulfilled

Does this molecule meet the criterion IC50 < 0.02 µM? Cn1cc(C(=O)Nc2ccccc2CC2CCCCC2)c(C(F)(F)F)n1
Not fulfilled

Let us now turn to Cn1cc(C(=O)Nc2ccccc2C2CCCCC2)c(I)n1
Fulfilled

Let us now turn to Cn1cc(C(=O)Nc2ccccc2C=C2CCCCC2)c(C(F)(F)F)n1
Not fulfilled

Let us now turn to Cn1cc(C(=O)Nc2ccccc2[C@@H]2C[C@H]3CC[C@@H]2C3)c(Cl)n1 (relative stereo)
Not fulfilled

Let us now turn to CC(c1ccccc1NC(=O)c1cn(C)nc1C(F)(F)F)C1CCCC1 (stereo not drawn)
Not fulfilled

====

List of IC50 values.
# experimental target: succinate dehydrogenase (Botrytis cinerea, UniProt A0A384J5E4+A0A384J8V8+A0A384JHJ5)
# Construct: succinate-DCPIP reductase assay with KCN
# test: Enzyme inhibition: succinate dehydrogenase activity in Botrytis cinerea mitochondria (DCPIP reduction)
# Assay type: biochemical
# measurement conditions: concentration required to inhibit the rate of DCPIP reduction by 50%; Botrytis cinerea isolate Nick mitochondria; read-out: I50 (μM conc.)
Unit µM implied. Number only.

> print(dat)
                                   compound                       experimental.target  observed
1  Cn1cc(C(=O)Nc2ccccc2C2=CC(C)(C)CC(C)(C)C2)c(C(F)F)n1  succinate dehydrogenase (Botrytis cinerea, UniProt A0A384J5E4+A0A384J8V8+A0A384JHJ5)    0.0069
2  Cn1cc(C(=O)Nc2ccccc2[C@@H]2C[C@H]3CC[C@@H]2C3)c(C(F)(F)Cl)n1 (relative stereo)  succinate dehydrogenase (Botrytis cinerea, UniProt A0A384J5E4+A0A384J8V8+A0A384JHJ5)     0.078
3  Cc1ccc(OC2CCCCC2)c(NC(=O)c2cn(C)nc2C(F)(F)F)c1  succinate dehydrogenase (Botrytis cinerea, UniProt A0A384J5E4+A0A384J8V8+A0A384JHJ5)      0.59
4  Cn1cc(C(=O)Nc2ccccc2O[C@H]2CC[C@@H](C)CC2)c(C(F)(F)F)n1  succinate dehydrogenase (Botrytis cinerea, UniProt A0A384J5E4+A0A384J8V8+A0A384JHJ5)     0.031
5  Cn1cc(C(=O)Nc2ccccc2CC2CCCC2)c(C(F)(F)F)n1  succinate dehydrogenase (Botrytis cinerea, UniProt A0A384J5E4+A0A384J8V8+A0A384JHJ5)      0.22

Could you now look at the following compound, please?
# IC50 lookup, item COc1cccc(NC(=O)c2cn(C)nc2C(F)(F)F)c1C1CCCCCCC1
0.0048

====

List of IC50 values.
# experimental target: succinate dehydrogenase (Botrytis cinerea, UniProt A0A384J5E4+A0A384J8V8+A0A384JHJ5)
# Construct: succinate-DCPIP reductase assay with KCN
# test: Enzyme inhibition: succinate dehydrogenase activity in Botrytis cinerea mitochondria (DCPIP reduction)
# Format: biochemical
# measurement conditions: concentration required to inhibit the rate of DCPIP reduction by 50%; Botrytis cinerea isolate Nick mitochondria; read-out: I50 (μM conc.)
# Procedure: Mitochondria were isolated by a method adapted from G.A. White [Biochem. Biophys. Res. Commun. 44: 1212, 1971]. […] The succinate dehydrogenase activity was measured at 600 nm in 50 mM potassium phosphate, pH 7.2, 1 mM KCN, 45 μM 2,6-dichlorophenolindophenol (DCPIP) and 17 mM disodium succinate (final volume, 1 mL) with a Perkin-Elmer Lambda 7 ultraviolet-visible spectrophotometer. […]
Unit µM implied. Number only.

// known answers, use as guide
> print(dat)
                                   compound  assay.endpoint  observed
1  Cn1cc(C(=O)Nc2ccccc2OC2CCCCC2)c(C(F)F)n1            IC50    0.0071
2  Cn1cc(C(=O)Nc2ccccc2C2=CCCCCC2)c(C(F)(F)F)n1            IC50    0.0021

# IC50 lookup, item Cn1cc(C(=O)Nc2ccccc2C2=CCCCCCC2)c(C(F)(F)F)n1
0.0041

Let us now turn to Cn1nc(C(F)(F)F)c(C(=O)Nc2ccccc2[C@@H]2C[C@H]3CC[C@@H]2C3)c1F (relative stereo)
0.01

====

# System: Botrytis cinerea
# test: Eggplant grey mold
# Assay type: in vivo
# Design: scale not given here
# measurement conditions: eggplant sprayed with 20 ppm, inoculated 24 h later, rated after 3-4 days
# Procedure: Eggplant seed are planted in 2.25" square pots, six per pot, and maintained in growth chambers set at 23° C., 80% humidity, and 12 h photoperiod. When the plants are at the cotyledon stage (14-18 days afterplanting), the plants are sprayed with 1.5 mL/pot of 500, 100 or 20 ppm 2:3 acetone:water (with 0.5% Tween® 20) formulations of the test compounds. Twenty-four hours later the plants are inoculated with Botrytis cinerea, approximately 0.5 mL/pot of a 4×10^6 spore/mL suspension. […]
assay endpoint: Disease Control Rating at 20 ppm
Please give the numeric answer without any surrounding text.

# Disease Control Rating at 20 ppm lookup, item Cn1cc(C(=S)Nc2ccccc2C2CCCCCC2)c(C(F)(F)F)n1
1

Let us now turn to Cn1cc(C(=O)Nc2cccc(F)c2C2CCCCC2)c(C(F)F)n1
1

Let us now turn to Cc1nn(C)c(C)c1C(=O)Nc1ccccc1C1CCCCC1
0

Let us now turn to Cn1cc(C(=O)Nc2ccccc2C2CCC(C(C)(C)C)CC2)c(C(F)F)n1 (stereo not drawn)
1

Let us now turn to C[C@H]1CCC[C@H](c2ccccc2NC(=O)c2cn(C)nc2C(F)(F)F)C1 (relative stereo)
1

Let us now turn to Cn1cc(C(=O)Nc2ccccc2C2=CCCCC2C(C)(C)C)c(C(F)(F)F)n1 (stereo not drawn)
0

====

# Test system: Botrytis cinerea
# test: Eggplant grey mold
# Type: in vivo
# Set-up: scale not given here
# measurement conditions: eggplant sprayed with 500 ppm, inoculated 24 h later, rated after 3-4 days
List of Disease Control Rating at 500 ppm values.
Please give the numeric answer without any surrounding text.

// known answers, use as guide
> print(dat)
                                   compound                     assay.endpoint  observed
1  Cn1nc(C(F)F)c(C(=O)Nc2ccccc2C2CCCCCC2)c1Cl  Disease Control Rating at 500 ppm         2
2  Cn1cc(C(=O)Nc2cc(Cl)ccc2C2CCCCC2)c(C(F)(F)F)n1  Disease Control Rating at 500 ppm         0
3  Cc1c(C(=S)Nc2ccccc2[C@@H]2C[C@H]3CC[C@@H]2C3)c(Cl)nn1C (relative stereo)  Disease Control Rating at 500 ppm         0

Could you now look at the following compound, please?
# Disease Control Rating at 500 ppm lookup, item Cn1cc(C(=O)Nc2ccccc2SC2CCCCC2)c(C(F)(F)F)n1
0
